- System: hPPARα (Homo sapiens, UniProt Q07869)
- Sequence (Q07869 whole entry): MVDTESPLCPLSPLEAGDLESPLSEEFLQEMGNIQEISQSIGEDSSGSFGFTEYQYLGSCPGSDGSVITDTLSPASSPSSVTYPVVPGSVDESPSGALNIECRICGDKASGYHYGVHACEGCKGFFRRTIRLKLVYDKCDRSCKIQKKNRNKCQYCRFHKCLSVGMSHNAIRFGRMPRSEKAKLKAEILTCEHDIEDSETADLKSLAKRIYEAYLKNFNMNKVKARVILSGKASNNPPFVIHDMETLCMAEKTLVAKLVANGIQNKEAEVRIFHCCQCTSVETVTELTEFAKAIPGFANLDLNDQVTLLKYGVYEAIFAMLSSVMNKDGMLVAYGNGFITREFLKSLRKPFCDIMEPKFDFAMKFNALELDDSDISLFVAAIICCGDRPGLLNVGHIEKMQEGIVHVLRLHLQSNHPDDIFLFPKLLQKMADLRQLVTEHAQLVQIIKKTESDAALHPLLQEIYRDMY
- Experiment description: PPARα luciferase cell reporter assay (Indigo Biosciences)
- Assay type: cell-based
- Settings: 5 μM; structure IIa compounds (Table 6)
Recorded metric: Fold (5 μM): fold increase in luciferase compared to DMSO negative control (fold)

# Compound, Display unit, Result
measured = [
    ("O=C(O)c1cccc(NCc2ccc(OCc3ccc(Cl)cc3)cc2)c1 [Compound 122]", "fold", 17),
    ("NS(=O)(=O)c1cccc(NCc2ccc(OCc3ccc(F)cc3)cc2)c1 [Compound 147]", "fold", 3),
    ("O=C(O)COc1cccc(NCc2ccc(OCc3ccc(C(F)(F)F)cc3)cc2)c1 [Compound 129]", "fold", 2),
]

---

- System: hPPARγ (Homo sapiens)
- Construct: expressed in transfected cells
- Sequence (P37231 1-505): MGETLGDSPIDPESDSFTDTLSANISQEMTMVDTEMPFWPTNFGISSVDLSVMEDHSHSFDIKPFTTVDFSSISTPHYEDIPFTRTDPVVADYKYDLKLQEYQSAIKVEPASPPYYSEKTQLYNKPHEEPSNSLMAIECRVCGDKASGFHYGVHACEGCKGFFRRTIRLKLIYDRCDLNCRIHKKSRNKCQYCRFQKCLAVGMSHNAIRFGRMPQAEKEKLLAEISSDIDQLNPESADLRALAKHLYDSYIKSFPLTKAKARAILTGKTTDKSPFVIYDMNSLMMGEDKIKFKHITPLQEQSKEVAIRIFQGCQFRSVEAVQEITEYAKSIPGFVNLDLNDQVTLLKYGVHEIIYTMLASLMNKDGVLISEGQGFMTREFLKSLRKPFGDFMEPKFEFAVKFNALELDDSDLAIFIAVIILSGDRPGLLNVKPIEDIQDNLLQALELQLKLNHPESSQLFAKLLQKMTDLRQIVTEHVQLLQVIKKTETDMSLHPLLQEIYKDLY
- Experiment description: PPARγ luciferase reporter cell-line assay (Indigo Biosciences)
- Assay type: cell-based
- Settings: Table 6, cellular luciferase activity; read-out: γ EC50

# Molecule, Comparison symbol, EC50 [µM]
data = [
    ("COc1ccc(COc2ccc(CNc3cccc(C(=O)O)c3)c(OCc3ccc(OC)cc3)c2)cc1 [Compound 92]", ">", 100),
    ("Cc1cc(CNc2cccc(C(=O)O)c2)ccc1OCc1ccc(F)cc1 [Compound 190]", ">", 100),
    ("COc1ccc(COc2ccc(CNc3cccc(C(=O)O)c3)cc2)cc1 [Compound 91]", ">", 100),
    ("COc1ccc(COc2ccc(CNc3cccc(OC(C)(C)C(=O)O)c3)c(OCc3ccc(OC)cc3)c2)cc1 [Compound 115]", "=", 8.9),
    ("COc1ccc(COc2ccc(CNc3cccc(OC(C)(C)C(=O)O)c3)cc2)cc1 [Compound 114]", "=", 38.6),
]

---

- System: hPPARα (Homo sapiens)
- Experiment description: PPARα luciferase cell reporter assay (Indigo Biosciences)
- Assay type: cell-based
- Settings: 5 μM; structure IIa compounds (Table 6)
Recorded metric: Fold (5 μM): fold increase in luciferase compared to DMSO negative control (fold)

# Structure as smiles, System, Display unit, Result
rows = [
    ("O=C(O)c1cccc(NCc2ccc(OCc3ccc(F)cc3F)cc2)c1", "hPPARα (Homo sapiens)", "fold", 51),
    ("CN(Cc1ccc(OCc2ccc(F)cc2)cc1)c1cccc(C(=O)O)c1", "hPPARα (Homo sapiens)", "fold", 102),
    ("Fc1ccc(COc2ccc(CNc3cccc(-c4nnn[nH]4)c3)cc2)cc1", "hPPARα (Homo sapiens)", "fold", 73),
    ("N#Cc1ccc(COc2ccc(CNc3cccc(C(=O)O)c3)cc2)cc1", "hPPARα (Homo sapiens)", "fold", 42),
    ("CN(Cc1ccc(OCc2ccc(F)cc2)cc1)c1cccc(OC(C)(C)C(=O)O)c1", "hPPARα (Homo sapiens)", "fold", 94),
    ("O=C(O)c1cccc(NCc2ccc(OCc3cc(F)cc(F)c3)cc2)c1", "hPPARα (Homo sapiens)", "fold", 9),
    ("CC(C)(Oc1cccc(NCc2ccc(OCc3ccc(C(F)(F)F)cc3)cc2)c1)C(=O)O", "hPPARα (Homo sapiens)", "fold", 19),
    ("O=C(O)c1cccc(NCc2ccc(OCc3ccc(Br)cc3)cc2)c1", "hPPARα (Homo sapiens)", "fold", 53),
    ("CC(C)(Oc1cccc(NCc2ccc(OCc3cc(F)cc(F)c3)cc2)c1)C(=O)O", "hPPARα (Homo sapiens)", "fold", 16),
    ("O=C(O)c1cccc(NCc2ccc(OCc3cccc(F)c3)cc2)c1", "hPPARα (Homo sapiens)", "fold", 73),
    ("COc1ccc(COc2ccc(CNc3cccc(C(=O)NO)c3)cc2)cc1", "hPPARα (Homo sapiens)", "fold", 3),
    ("O=C(O)c1cc(F)cc(NCc2ccc(OCc3ccc(F)cc3)cc2)c1", "hPPARα (Homo sapiens)", "fold", 61),
    ("CC(C)(Oc1cccc(NCc2ccc(OCc3ccc(Cl)cc3)cc2)c1)C(=O)O", "hPPARα (Homo sapiens)", "fold", 2),
    ("O=C(O)c1cccc(NCc2ccc(OCc3ccc(C(F)(F)F)cc3)cc2)c1", "hPPARα (Homo sapiens)", "fold", 81),
    ("O=C(O)c1cccc(NCc2ccc(OCc3ccccc3F)cc2)c1", "hPPARα (Homo sapiens)", "fold", 34),
    ("COc1ccc(COc2ccc(CNc3cccc(C(=O)O)c3)c(OCc3ccc(OC)cc3)c2)cc1", "hPPARα (Homo sapiens)", "fold", 8),
    ("COc1ccc(COc2ccc(CNc3cccc(OCC(=O)O)c3)cc2)cc1", "hPPARα (Homo sapiens)", "fold", 2),
    ("O=C(O)c1cccc(NCCc2ccc(OCCc3ccccc3)cc2)c1", "hPPARα (Homo sapiens)", "fold", 1),
    ("COc1ccc(COc2ccc(CNc3cccc(OC(C)(C)C(=O)O)c3)c(OCc3ccc(OC)cc3)c2)cc1", "hPPARα (Homo sapiens)", "fold", 1),
    ("O=C(O)c1cccc(NCc2ccc(OCc3ccc(Cl)cc3Cl)cc2)c1", "hPPARα (Homo sapiens)", "fold", 1),
    ("OB(O)c1cccc(NCc2ccc(OCc3ccc(F)cc3)cc2)c1", "hPPARα (Homo sapiens)", "fold", 3),
    ("O=C(NO)c1cccc(NCc2ccc(OCc3ccc(F)cc3)cc2)c1", "hPPARα (Homo sapiens)", "fold", 34),
    ("COc1ccc(CCOc2ccc(CCNc3cccc(C(=O)O)c3)cc2)cc1", "hPPARα (Homo sapiens)", "fold", 1),
    ("CC(C)(Sc1cccc(NCc2ccc(OCc3ccc(F)cc3)cc2)c1)C(=O)O", "hPPARα (Homo sapiens)", "fold", 10),
    ("O=C(O)c1cccc(NCc2ccc(OCc3ccc(I)cc3)cc2)c1", "hPPARα (Homo sapiens)", "fold", 39),
    ("Cc1cc(CN(C)c2cccc(C(=O)O)c2)ccc1OCc1ccc(F)cc1", "hPPARα (Homo sapiens)", "fold", 102),
    ("O=C(O)c1cccc(NCc2ccc(OCc3ccc([N+](=O)[O-])cc3)cc2)c1", "hPPARα (Homo sapiens)", "fold", 16),
    ("CC(C)(Oc1cccc(NCc2ccc(OCc3ccc(F)cc3)cc2)c1)C(=O)O", "hPPARα (Homo sapiens)", "fold", 11),
    ("O=C(O)c1cc(Cl)cc(NCc2ccc(OCc3ccc(F)cc3)cc2)c1", "hPPARα (Homo sapiens)", "fold", 18),
    ("COc1ccc(COc2ccc(CNc3cccc(B(O)O)c3)cc2)cc1", "hPPARα (Homo sapiens)", "fold", 1),
    ("CC(C)(Oc1cccc(NCc2ccc(OCc3ccccc3)cc2)c1)C(=O)O", "hPPARα (Homo sapiens)", "fold", 1),
    ("CS(=O)(=O)Nc1cccc(NCc2ccc(OCc3ccc(F)cc3)cc2)c1", "hPPARα (Homo sapiens)", "fold", 3),
    ("O=C(O)c1cccc(NCc2ccc(OCc3ccccc3)cc2)c1", "hPPARα (Homo sapiens)", "fold", 18),
    ("Cc1cc(CNc2cccc(C(=O)O)c2)ccc1OCc1cc(F)cc(F)c1", "hPPARα (Homo sapiens)", "fold", 88),
    ("O=C(O)c1cc(Br)cc(NCc2ccc(OCc3ccc(F)cc3)cc2)c1", "hPPARα (Homo sapiens)", "fold", 59),
]

---

- Experiment description: Solubilities of various compounds
- Format: physicochemical
- Settings: PBS, pH 7.4, aqueous buffer; read-out: PBS Solubility pH 7.4
Recorded solubility by entry
Recorded metric: solubility (µM)

# Molecule, Recorded metric, Display unit, Result
rows = [
    ("CC(C)(Oc1ccc(C(=O)c2ccc(Cl)cc2)cc1)C(=O)O [Fenofibric acid, fenofibric acid, reference compound]", "solubility", "µM", 278),
    ("Cc1cc(CNc2cccc(C(=O)OCOP(=O)(O)O)c2)ccc1OCc1ccc(F)cc1", "solubility", "µM", 316),
    ("Cc1cc(CNc2cccc(C(=O)OCOP(=O)([O-])O)c2)ccc1OCc1ccc(F)cc1.[Na+]", "solubility", "µM", 292),
]
